Hello, the source for this data is PubChem BioAssay (NCI), in case you need it.

Tested on: SK-MEL-28 melanoma
experimentDescription: NCI-60 one-dose screen, 48 h (100 = growth as untreated, 0 = no growth, -100 = all killed)
testParameters: 10 µM unless noted
About 83,000 compounds went through this panel and 20% of them were active in at least one assay; those are over-represented in the sample as a whole.
Please note: satisfied applies when growth is 70% or greater, and not satisfied applies otherwise.

# molecule, testTarget, qualitativeLabel
records = [
    ("Cc1cc(-c2cc(O)ccc2Cl)cc2nnc(Nc3ccc(OCCN4CCCC4)cc3)nc12", "SK-MEL-28 melanoma", "not satisfied"),
    ("Cc1nn(-c2nc3ccccc3[nH]2)c2c1C(c1ccc(O)cc1)CC(=O)N2 (centres undefined)", "SK-MEL-28 melanoma", "satisfied"),
    ("Cc1ccc(N=C2CSc3nnc(-c4csc5c4CCCC5)n3N2)cc1", "SK-MEL-28 melanoma", "not satisfied"),
    ("COC(=O)c1[nH]cnc1/N=N/N(C)CCO", "SK-MEL-28 melanoma", "satisfied"),
    ("O=S1(=O)OC(c2cc(Cl)c(O)c(Br)c2)(c2cc(Cl)c(O)c(Br)c2)c2ccccc21", "SK-MEL-28 melanoma", "satisfied"),
    ("CC[C@@H]1C(=O)N(C)c2cnc(Nc3ccc(C(=O)NC4CCC(N5CCN(CC6CC6)CC5)CC4)cc3OC)nc2N1C(C)C (some centres undefined)", "SK-MEL-28 melanoma", "not satisfied"),
    ("CS(=O)(=O)N1CCN(Cc2cc3nc(-c4cccc5[nH]ncc45)nc(N4CCOCC4)c3s2)CC1", "SK-MEL-28 melanoma", "not satisfied"),
]

====

Reported growth values follow for various compounds
Test system: U251 CNS
experimentDescription: NCI-60 one-dose screen, 48 h (100 = growth as untreated, 0 = no growth, -100 = all killed)
testParameters: 10 µM unless noted
Compounds without any hit were thinned out: in the full panel of roughly 83,000, 20% have a hit.

# compound, growth / %
measured = [
    ("CCCC(=O)OCC1OC(n2cnc3c(=S)nc[nH]c32)C(OC(=O)CCC)C1OC(=O)CCC (centres undefined)", 87.6),
    ("Nc1nc(=S)c2ncn(C3OC(COC(=O)c4ccc(Cl)cc4)C(OC(=O)c4ccc(Cl)cc4)C3OC(=O)c3ccc(Cl)cc3)c2[nH]1 (centres undefined)", 38),
    ("COc1ccc2c(CCC(c3ccccc3)c3ccccc3)c3[n+](cc2c1OC)CCc1cc2c(cc1-3)OCO2", 10.5),
    ("COc1ccc(-c2ccc3c(N4CCOC[C@@H]4C)nc(N4CCOC[C@@H]4C)nc3n2)cc1CO", 7.15),
]

====

System: SNB-75 CNS
experimentDescription: NCI-60 one-dose screen, 48 h (100 = growth as untreated, 0 = no growth, -100 = all killed)
testParameters: 10 µM unless noted
About 83,000 compounds went through this panel and 20% of them were active in at least one assay; those are over-represented in the sample as a whole.
Listing of entries alongside the reported growth.
readoutType: growth (%)

# compound, observedResult
rows = [
    ("CCN1CCN(Cc2ccc(Cc3ncc(F)c(-c4cc(F)c5nc(C)n(C(C)C)c5c4)n3)nc2)CC1", 21.2),
    ("O=C(N/N=C/c1ccc(Cl)cc1)c1cc(-c2cc3ccccc3o2)nn1-c1ccccc1", 86.5),
    ("COc1ccc(-c2cc3c(C)nc(N)nc3n(C3CCC(OCCO)CC3)c2=O)cn1 (stereo not given)", -50.6),
    ("COc1ccc2c(CCc3ccc(Cl)cc3)c3[n+](cc2c1OC)CCc1cc2c(cc1-3)OCO2", 58),
    ("O=C1OCC2=C1C(c1cccc(F)c1)c1cc3c(cc1N2CCO)OCCO3 (stereo not given)", 27.3),
]

====

Test system: KM12 colon
experimentDescription: NCI-60 one-dose screen, 48 h (100 = growth as untreated, 0 = no growth, -100 = all killed)
testParameters: 10 µM unless noted
Description: Growth inhibition of the KM12 human tumor cell line is measured as a screen for anti-cancer activity. Cells are grown in 96 well plates and exposed to the test compound for 48 hours. Compounds are tested at a single concentration, which is 10^-5 M for most compounds. The reported endpoint is percent growth (GI% or GIPRCNT), where numbers from 0 - 100% represent growth inhibition, and numbers from -100% - 0 represent cell death. For example, a value of 40 represents 60% growth inhibition. […]
About 83,000 compounds went through this panel and 20% of them were active in at least one assay; those are over-represented in the sample as a whole.
Values of growth strictly less than 90% map to Yes, and values of at least 90% map to No.

# structureSmiles, testTarget, qualitativeLabel
records = [
    ("COC(=O)CCCNc1c(-c2c(O)c(O)cc3c(O)c(-c4c(C)cc5c(-c6nc7ccccn7c6NCCCC(=O)OC)c(O)c(O)cc5c4O)c(C)cc23)nc2ccccn12", "KM12 colon", "Yes"),
    ("CC(C)(O)CC(=O)NCCn1ccc2ncnc(Nc3ccc(Oc4cccc(C(F)(F)F)c4)c(Cl)c3)c21", "KM12 colon", "Yes"),
    ("C[N+](C)(CCOC(c1ccccc1)c1ccccc1)CC(=O)OCc1ccccc1", "KM12 colon", "No"),
    ("O=c1[nH]c(N2CCOCC2)nc2scc(-c3ccccc3)c12", "KM12 colon", "No"),
]

====

System: RXF 393 renal
experimentDescription: NCI-60 one-dose screen, 48 h (100 = growth as untreated, 0 = no growth, -100 = all killed)
testParameters: 10 µM unless noted
This is part of a sample that, as a whole, favours compounds with a hit. Of some 83,000 tested, about 20% had one in any assay.
Could you mark each record Yes if its growth falls strictly under 20%, and No if it equals or exceeds it?

# compound, qualitativeLabel
measured = [
    ("C/C(=N\\NC(=O)Cn1c(-c2ccc(S(C)(=O)=O)cc2)nc2ccccc21)c1ccc(Cl)cc1", "No"),
    ("N#CC(C#N)=NO", "No"),
    ("COc1cc2c(c(OC)c1)C1c3ccccc3NC(=O)N1CC2 (stereo not given)", "Yes"),
    ("COc1cc(C(=O)NNC(=O)c2ccc(NC(=O)CCl)cc2)cc(OC)c1OC", "No"),
    ("Cc1nc2ccc(-n3ncc(C(=O)c4cc5ccccc5[nH]4)c3N)cc2[nH]1", "Yes"),
    ("CCCNC(=O)c1cn2ncnc(Nc3cc(C(=O)NC4CC4)ccc3C)c2c1C", "No"),
    ("Cc1cc(N(CCNc2ccnc3cc(Cl)ccc23)Cc2ccc3c(c2)OCO3)nc(N2CCCC2)n1", "Yes"),
    ("O=C(NO)c1ccc(Cn2c(=O)n(CCc3ccccc3)c(=O)c3ccccc32)cc1", "Yes"),
    ("CCCCn1c(C)nc2cc(Nc3nc(N4CCCCC4)nc4nc[nH]c34)ccc21", "No"),
    ("COc1cccc2cc(-c3nc(C4CCC(C(=O)O)CC4)n4ncnc(N)c34)[nH]c12 (stereo not given)", "Yes"),
]

====

Tested on: TK-10 renal
experimentDescription: NCI-60 one-dose screen, 48 h
testParameters: 10 µM unless noted
Method: Growth inhibition of the TK-10 human tumor cell line is measured as a screen for anti-cancer activity. Cells are grown in 96 well plates and exposed to the test compound for 48 hours. Compounds are tested at a single concentration, which is 10^-5 M for most compounds. The reported endpoint is percent growth (GI% or GIPRCNT), where numbers from 0 - 100% represent growth inhibition, and numbers from -100% - 0 represent cell death. For example, a value of 40 represents 60% growth inhibition. […]
Compounds without any hit were thinned out: in the full panel of roughly 83,000, 20% have a hit. Calls of active or inactive are those of the source. Rule for the calls: active = growth percent below 10; inactive = the rest.
Labels: active, inactive

# compound, qualitativeLabel
data = [
    ("COc1cc2ncnc(Nc3cccc(Cl)c3F)c2cc1OC(=O)N1CCN(C)C[C@H]1C", "inactive"),
    ("COC(=O)[C@]12CC[C@@H](C)[C@H](C)[C@@H]1C1=CC[C@@H]3[C@@]4(C)C(C=O)=C[C@@](C)(COS(C)(=O)=O)C4=CC[C@@]3(C)[C@]1(C)CC2", "active"),
    ("CN1CCC(COc2cnc(-c3cccc(Cn4nc(-c5cccc(C#N)c5)ccc4=O)c3)nc2)CC1", "inactive"),
    ("CCc1cnn2c(NCc3ccc[n+]([O-])c3)cc(N3CCCC[C@H]3CCO)nc12", "active"),
    ("O=C(c1ccccc1)C(c1ccccc1)N1CCOCC1 (centres undefined)", "inactive"),
    ("CN1CCN(c2ccc(OC(F)(F)F)c(Nc3ncc4c(n3)-c3c(c(C(N)=O)nn3CCO)CC4)c2)CC1", "inactive"),
    ("Cn1ncc(Cl)c1-c1cc(C(=O)N[C@H](CN)Cc2ccc(F)c(F)c2)oc1Cl", "active"),
    ("CC(=O)OC(C(=O)c1ccccc1)c1ccccc1 (centres undefined)", "inactive"),
    ("CC(=O)OC1Oc2ccccc2-c2oc(=O)c(-c3cc4ccc(N(C)C)cc4oc3=O)cc21 (centres undefined)", "inactive"),
]
